These data points were gathered from the nanobody polyreactivity screen of Harvey et al. (2022).

assay_summary: yeast display, Sf9 membrane polyspecificity reagent, FACS + sequencing; frameworks hold sequencing errors
test_readout: polyreactivity (PSR sort gate)

As a guide, the following entries are already answered.
// query Supply measured polyreactivity (PSR sort gate) of "QVQLVESGGGLVQAGGSLRLSCAASGRTFFINTMGWYRQAPGKEREFVAAITWSAGRTYYADSVKGRFTISRDNAKNTVYLQMNSLKPEDTAVYYCAAALHGHTFPFYYWGQGTQVTVSS" in your reply.
// result low polyreactivity

// query Supply measured polyreactivity (PSR sort gate) of "QEQHVESGGGLVQAGGSLRLSSAASVNIIGFYAKGWYREAPGKESEFVAAISFGTDRTYYADSVKGRFTISRENAKNTVYLQMNSLKPEDTALYYCNRRCNNGVRYGECDYWGQGTQVTVSS" in your reply.
// result high polyreactivity

// query Supply measured polyreactivity (PSR sort gate) of "QVQLVESGGGLVQAGGSLRLSCAASGNTFNYNAMGWYRQAPGKERELVAAITSSGGSTYYADSVKGRFTISRDYAKNTVYLQMNSLKPDDTAVYYCAADLWQDSYSYWFDYWGQGTQVTVSS" in your reply.
// result high polyreactivity

// query Supply measured polyreactivity (PSR sort gate) of "QVQLVESGGGLVQAGGSLRLSCAASGITFAFYDMGWYRQAPGKERELVAAISYSGGGTYYADSVKGRFTISRDNAKNTVYLQMNSLKPEDTAVYYCAADPKTHALFGEDYWGQGTQVTVSS" in your reply.
// result low polyreactivity

Others:
// query Supply measured polyreactivity (PSR sort gate) of "HVQLVESGGGLVQAGGSLRLSCAASGLNFLYYGMGWYRQAPGKERELVAAISSGGGTYYADSVKGRFTISRDNAKNTVYLQMNSLKPEDTAVYYCAVDPQWTYWSTYRYDYWGQGTQVTVSS" in your reply.
// result low polyreactivity
